system: SK-MEL-28; test: SRB colorimetric cell growth inhibition assay, SK-MEL-28; assay type: cell-based; settings: MEL-28; LC=cell killing (cytotoxic effect); read-out: LC50 MEL-28
MEASUREMENT_TYPE: CC50

Briefly, CC50 measured for COc1cc(-c2c3n(c4c(=O)oc5cc(OC(C)=O)c(OC)cc5c24)CCc2cc(OC)c(OC(C)=O)cc2-3)ccc1OC(C)=O : 15.9 µM

---

system: DU-145; assay: SRB colorimetric cell growth inhibition assay, DU-145; type: cell-based; settings: Homo sapiens, DU-145, read-out: LC50 DU-145, DU-145; LC=cell killing (cytotoxic effect)
CC50 vs 8 µM: less than gives true; not less than gives false.

Worked set:
- MOLECULE: "COc1cc(-c2c3c4cc(OC)c(OC(=O)[C@@H](N)CCCCNC(=O)OCc5ccccc5)cc4oc(=O)c3n3ccc4c(OC(=O)[C@@H](N)CCCCNC(=O)OCc5ccccc5)c(OC)c(OC)cc4c23)ccc1OC(=O)[C@@H](N)CCCCNC(=O)OCc1ccccc1"
  ASSIGNED_LABEL: "true"
- MOLECULE: "COc1cc(-c2c3n(c4c(=O)oc5cc(OC(=O)[C@@H](N)C(C)C)c(OC)cc5c24)CCc2c-3cc(OC)c(OC)c2OC(=O)[C@@H](N)C(C)C)ccc1OC(=O)[C@@H](N)C(C)C"
  ASSIGNED_LABEL: "true"
- MOLECULE: "COc1cc(-c2c3n(c4c(=O)oc5cc(OC(=O)[C@H](CO)NC(=O)OC(C)(C)C)c(OC)cc5c24)CCc2c-3cc(OC)c(OC)c2OC(=O)[C@H](CO)NC(=O)OC(C)(C)C)ccc1OC(=O)[C@H](CO)NC(=O)OC(C)(C)C"
  ASSIGNED_LABEL: "true"
- MOLECULE: "COc1cc(-c2c3n(c4c(=O)oc5cc(OC(=O)[C@@H](N)CO)c(OC)cc5c24)CCc2c-3cc(OC)c(OC)c2OC(=O)[C@@H](N)CO)ccc1OC(=O)[C@@H](N)CO"
  ASSIGNED_LABEL: "true"

INPUT: Strictly below 8 µM: is that where CC50 of COc1cc(-c2c3n(c4c(=O)oc5cc(OC(=O)[C@@H]6CCCN6)c(OC)cc5c24)CCc2cc(OC(=O)[C@@H]4CCCN4)c(OC)cc2-3)ccc1OC(=O)[C@@H]1CCCN1 sits?
OUTPUT: false

INPUT: Strictly below 8 µM: is that where CC50 of COc1cc(-c2c3c4cc(OC)c(OC(=O)[C@H](N)C(C)C)cc4oc(=O)c3n3ccc4c(OC(=O)[C@H](N)C(C)C)c(OC)c(OC)cc4c23)ccc1OC(=O)[C@H](N)C(C)C sits?
OUTPUT: false

---

tested on: IGROV-ET; assay: SRB colorimetric cell growth inhibition assay, IGROV-ET (ET-743 resistant); type: cell-based; settings: Homo sapiens, IGROV-ET; GI=growth inhibition; read-out: GI50 IGROV-ET
MEASUREMENT_TYPE: GI50 (µM)
Expressed in µM, but write only the number.

- MOLECULE: "COc1cc2ccn3c(c(-c4ccc(OC(=O)[C@@H](NC(=O)OC(C)(C)C)C(C)C)c(OC)c4)c4c5cc(OC)c(OC(=O)[C@@H](NC(=O)OC(C)(C)C)C(C)C)cc5oc(=O)c43)c2cc1OC [Compound 15]"
  UNITS_OF_MEASURE: "µM"
  GI50: 6.87

Kindly review the next molecule as well.
Sure, the documented GI50 for COc1cc(-c2c3n(c4c(=O)oc5cc(OC(=O)[C@H](Cc6c[nH]c7ccccc67)NC(=O)OC(C)(C)C)c(OC)cc5c24)CCc2cc(OC(=O)[C@H](Cc4c[nH]c5ccccc45)NC(=O)OC(C)(C)C)c(OC)cc2-3)ccc1OC(=O)[C@H](Cc1c[nH]c2ccccc12)NC(=O)OC(C)(C)C [Compound 29] is 5.65
